Reference source: the supplement of paper PMC9663587

Listed compounds paired with reported area over the GR curve
tested on: MCF10A; assay: area over the GR curve, 72 h; higher = more effect;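 also: Dye Drop or Deep Dye Drop imaging of viable cells in 384-well plates (Hoechst nuclei, LIVE/DEAD dye), nine half-log doses, GR normalized to DMSO controls and time-zero plates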
Your answer should be a plain number; it is taken to be in GR.

Before answering, review these 3 worked examples.
compound: C=CCn1c(=O)c2cnc(Nc3ccc(N4CCN(C)CC4)cc3)nc2n1-c1cccc(C(C)(C)O)n1 [AZD1775] (max 10 µM)
numericReadout: 0.0857
--
compound: NC1(C(=O)N[C@@H](CCO)c2ccc(Cl)cc2)CCN(c2nc[nH]c3nccc2-3)CC1 [AZD5363] (max 10 µM)
numericReadout: 0.0283
--
compound: NC(=O)Nc1cc(-c2cccc(F)c2)sc1C(=O)N[C@H]1CCCNC1 [AZD7762] (max 10 µM)
numericReadout: 0.225

Now examine the next entry.
get_value(item= Cc1cc(Nc2ncc(Cl)c(Nc3ccccc3S(=O)(=O)C(C)C)n2)c(OC(C)C)cc1C1CCNCC1 [Ceritinib/LDK378] (max 10 µM) , readout=area over the GR curve) returns 0.184

###

Listed compounds paired with reported GRmax, 72 h
tested on: CAL51; assay: GRmax, 72 h; higher = less effect
Your answer should be a plain number; it is taken to be in GR.

compound: CCNC(=O)c1noc(-c2cc(C(C)C)c(O)cc2O)c1-c1ccc(CN2CCOCC2)cc1 [Luminespib/NVP-AUY922] (max 1 µM)
unitInfo: GR
GRmax, 72 h: -0.339
--
compound: CNCc1ccc(-c2[nH]c3cc(F)cc4c3c2CCNC4=O)cc1 [Rucaparib] (max 10 µM)
unitInfo: GR
GRmax, 72 h: 0.704
--
compound: CN(C)CC[C@H](CSc1ccccc1)Nc1ccc(S(=O)(=O)NC(=O)c2ccc(N3CCN(Cc4ccccc4-c4ccc(Cl)cc4)CC3)cc2)cc1[N+](=O)[O-] [ABT-737] (max 10 µM)
unitInfo: GR
GRmax, 72 h: 0.876
--
compound: CCC(=O)Nc1ccc(C(=O)Nc2ccc(Nc3ncc4c(n3)N(C)c3ccc(C)cc3C(=O)N4C)cc2)cc1
unitInfo: GR
GRmax, 72 h: 0.0325
--
compound: CC(C)n1nc(-c2ccc3oc(N)nc3c2)c2c(N)ncnc21 [INK128/MLN0128] (max 3.162 µM)
unitInfo: GR
GRmax, 72 h: 0.0529

get_value(item= CCCCOc1c(C(=O)c2c(F)cc(C)cc2F)c[nH]c2nncc1-2 (max 10 µM) , readout=GRmax, 72 h) returns 0.28

get_value(item= Cc1cc(C(C)Nc2ccccc2)c2nc(N3CCOCC3)cc(=O)n2c1 (stereo not drawn) [TGX221] (max 10 µM) , readout=GRmax, 72 h) returns 0.91

get_value(item= O=C(CCCCCCC(=O)Nc1ccccc1)NO [Vorinostat] (max 10 µM) , readout=GRmax, 72 h) returns -0.0506

###

tested on: ZR7530; assay: GRmax, 72 h; higher = less effect;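 also: breast cell lines in 384-well plates, nine doses across a 10^4 range, Dye Drop imaging of viable cells vs DMSO and time-zero plates, GR 0 means no net growth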
measuredMetric: GRmax, 72 h (GR)
Your answer should be a plain number; it is taken to be in GR.

compound: CN(C)CC[C@H](CSc1ccccc1)Nc1ccc(S(=O)(=O)NC(=O)c2ccc(N3CCN(Cc4ccccc4-c4ccc(Cl)cc4)CC3)cc2)cc1[N+](=O)[O-] [ABT-737] (max 10 µM)
unitInfo: GR
GRmax, 72 h: 0.552

compound: COc1cc2nccc(Oc3ccc(NC(=O)C4(C(=O)Nc5ccc(F)cc5)CC4)cc3)c2cc1OC [Cabozantinib] (max 10 µM)
unitInfo: GR
GRmax, 72 h: 0.449

Now examine the next entry.
get_value(item= CNc1nc(-c2ccc3c(N)n[nH]c3c2)cc(N2C[C@@H](C(=O)NC3CCCCC3)CC[C@H]2C)n1 (max 10 µM) , readout=GRmax, 72 h) returns 0.348
